Data provenance: ChEMBL document CHEMBL1149821

System: Mycobacterium tuberculosis
procedure.summary: Antimicrobial activity against Mycobacterium tuberculosis H37Rv at 6.25 ug/ml by alamar blue assay
Assay type: functional
The label depends only on inhibition at 6.25 µg/mL: 1.0 if it is at least 20%, 0.0 if it is smaller.

Hi team, for CN1CCC(OC(c2ccccc2)c2ccccc2)CC1(C)C (racemic) , is the recorded inhibition at 6.25 µg/mL at or above 20%?
0.0

Continue with CC(C)[C@@H]1C[C@@H](OC(c2ccccc2)c2ccccc2)CCN1c1ccccc1 (relative stereo)
0.0

What would you report for CC(C)[C@H]1C[C@@H](OC(c2ccccc2)c2ccccc2)CCN1C (relative stereo) ?
1.0

What do you have for CN1CCC(OC(c2ccc(Cl)cc2)c2ccc(Cl)cc2)CC1 ?
1.0

Entry c1ccc(C(O[C@H]2CCN(c3ccccc3)[C@@H](c3ccccc3)C2)c2ccccc2)cc1 (relative stereo) please
1.0

# repeat for CC(C)[C@H]1C[C@@H](OC(c2ccc(Cl)cc2)c2ccc(Cl)cc2)CCN1CCc1ccccc1 (racemic)
0.0

Follow-up entry: NNC(=O)c1ccncc1
1.0

Queued: CC(C)[C@H]1C[C@@H](OC(c2ccccc2)c2ccccc2)CCN1CCc1ccccc1 (racemic)
0.0

Entry to check: Clc1ccc(C(OC2CCN(CCc3ccccc3)CC2)c2ccc(Cl)cc2)cc1
1.0

====

procedure.summary: Cytotoxicity against HEK293 cells by MTT assay
Format: cell-based
protocol.conditions: human, read-out: LC50 (the source's name)
Binary label based on CC50 with cut-off 70 µg/mL: below gives True, not below gives False.

Determine if CC(C)[C@H]1C[C@@H](OC(c2ccc(Cl)cc2)c2ccc(Cl)cc2)CCN1CCc1ccccc1 (racemic) shows CC50 strictly lower than 70 µg/mL.
False

Also Clc1ccc(C(OC2CCN(CCc3ccccc3)CC2)c2ccc(Cl)cc2)cc1 , if possible.
True

Same question for CC(C)[C@H]1C[C@@H](OC(c2ccccc2)c2ccccc2)CCN1C (relative stereo) please.
False

Please give the result for CC1(C)C[C@@H](OC(c2ccccc2)c2ccccc2)CCN1c1ccccc1 (racemic) too.
True

Another compound to look at: c1ccc(C(O[C@H]2CCN(c3ccccc3)[C@H](c3ccccc3)C2)c2ccccc2)cc1 (relative stereo)
False

Another: CC(C)[C@H]1C[C@@H](OC(c2ccc(Cl)cc2)c2ccc(Cl)cc2)CCN1C (racemic)
True

Next up: CC(C)[C@@H]1C[C@@H](OC(c2ccccc2)c2ccccc2)CCN1c1ccccc1 (relative stereo)
False

Again, but for CN1CCC(OC(c2ccccc2)c2ccccc2)CC1(C)C (racemic)
False

Now consider CN1CCC(OC(c2ccc(Cl)cc2)c2ccc(Cl)cc2)CC1 and answer again.
True

Please give the result for c1ccc(CCN2CCC(OC(c3ccccc3)c3ccccc3)CC2)cc1 too.
True

For NNC(=O)c1ccncc1 [ISONIAZID] then?
False

Please do the same for CN1CCC(OC(c2ccccc2)c2ccccc2)CC1.Cl [DIPHENYLPYRALINE HYDROCHLORIDE] as well.
False

Then this compound: c1ccc(C(O[C@H]2CCN(c3ccccc3)[C@@H](c3ccccc3)C2)c2ccccc2)cc1 (relative stereo)
False

Repeat with CC(C)[C@H]1C[C@@H](OC(c2ccccc2)c2ccccc2)CCN1CCc1ccccc1 (racemic)
True

====

System: Mycobacterium tuberculosis
procedure.summary: Antimicrobial activity against Mycobacterium tuberculosis H37Rv at 6.25 ug/ml by alamar blue assay
Format: functional
Binary classification by inhibition at 6.25 µg/mL, with 40% as an inclusive lower bound for rule met; all other cases are rule not met.

Is inhibition at 6.25 µg/mL for CN1CCC(OC(c2ccccc2)c2ccccc2)CC1.Cl [DIPHENYLPYRALINE HYDROCHLORIDE] at or above 40%?
rule not met

What do you have for c1ccc(C(O[C@H]2CCN(c3ccccc3)[C@H](c3ccccc3)C2)c2ccccc2)cc1 (relative stereo) ?
rule met

Another compound to check: CC(C)[C@H]1C[C@@H](OC(c2ccc(Cl)cc2)c2ccc(Cl)cc2)CCN1C (racemic)
rule met

Param item: CC1(C)C[C@@H](OC(c2ccccc2)c2ccccc2)CCN1c1ccccc1 (racemic)
rule not met

What about this compound? CC(C)[C@@H]1C[C@@H](OC(c2ccccc2)c2ccccc2)CCN1C (relative stereo)
rule not met

Entry CC(C)[C@H]1C[C@@H](OC(c2ccccc2)c2ccccc2)CCN1c1ccccc1 (relative stereo) please
rule not met

Follow-up entry: c1ccc(CCN2CCC(OC(c3ccccc3)c3ccccc3)CC2)cc1
rule not met
